# Assay Name: Primary qHTS for delayed death inhibitors of the malarial parasite plastid, 48 hour incubation
# Condition Notes: P. falciparum luciferase growth in erythrocytes; series mostly up to 28.7 µM
The campaign covered roughly 310,000 compounds. About 18,000 (5.8%) were called active. Roughly 22% stayed inconclusive and do not appear here. The call rests on the fitted dose curve; in most records, active means well fitted inhibition curve with a large enough effect; inconclusive means small, poorly fitted or top-dose-only effect, or another doubt; inactive means no such curve, though single readings can be large or run the other way. This excerpt belongs to a sample that is enriched for actives.
Classes used: Yes (active), No (inactive)

{"columns": ["Compound", "Label Class"],
 "data": [
  ["COc1ccc(N(CC(=O)N2CCOCC2)S(=O)(=O)c2ccccc2)cc1Cl", "No"],
  ["C=C1CCC(N(O)c2cc(C)on2)C(=C)CCC2C1CC2(C)C (stereo unspecified)", "Yes"],
  ["O=S(=O)(NCCS(=O)(=O)N1CCN(c2ccccc2)CC1)c1ccc(F)cc1", "No"],
  ["Cc1ccccc1OCC(=O)Nc1ccc2c(c1)ncn2C", "No"],
  ["CCc1ccccc1NC(=O)c1ccc2snnc2c1", "No"],
  ["CC(C)(C)c1cc(NC(=O)NN2CCOCC2)nn1-c1c(Cl)cc(Cl)cc1Cl", "Yes"]
]}
